- protocol.details: NCI Yeast Anticancer Drug Screen. Data for the mec2-1 strain (AID 157)
- condition.description: S. cerevisiae mec2-1 strain, at 50.0 µM, hits give high values
About 79,000 compounds went through this panel and 15% of them were active in at least one assay; those are over-represented in the sample as a whole. Where a SMILES comes first, the peptide text is derived from it. [ ]: non-standard residue; d: D form. The star is where a group is joined. Ac5c = NC1(C(=O)O)CCCC1; Cbz = O=C(OCc1ccccc1)*
measured.quantity: growth inhibition (%)
Just the number please, in %, no unit attached.

CCOC(=O)c1ccc(C#N)cc1 ... -57.3
Cn1c(=O)c(-c2ccccc2)c(O)c2ccccc21 ... 12.4
CC(=O)N=C1N(/C=C2\C(=O)Oc3ccccc3C2=O)C(=O)/C(=C/c2ccc(OC(C)=O)cc2)N1C ... -17
COC(=O)CCc1c(C)[nH]c(C(=O)OC(C)(C)C)c1C ... 9.3

input: Which growth inhibition value belongs to O=C(O)CNC(=O)C1(NC(=O)CNC(=O)OCc2ccccc2)CCCC1 (Cbz-Gly-[Ac5c]-Gly-OH) ?
output: 20.3
